List of Cmax values.
assay: clinical; conditions: human, in vivo, po

# Molecule, Cmax
rows = [
    ("O=C1c2cccc3c2[C@H](CCC3)CN1[C@@H]1CN2CCC1CC2 [palonosetron]", "0.000768 to 0.00153 µg/mL"),
    ("Cc1ccccc1-c1cc(N2CCN(C)CC2)ncc1N(C)C(=O)C(C)(C)c1cc(C(F)(F)F)cc(C(F)(F)F)c1 [netupitant]", "0.374 to 0.65 µg/mL"),
]

###

assay: Apical-to-basolateral permeability in MDCK II monolayer; format: in vitro ADME, canine; conditions: dog

# Compound, Papp A→B at 50 μM, ×10⁻⁶ cm/s
data = [
    ("O=C1c2cccc3c2[C@H](CCC3)CN1[C@@H]1CN2CCC1CC2 [palonosetron]", 65),
]

###

# Cmax per record follows
assay: Study 5 bioequivalence study, PK after single oral NEPA; format: in vivo, human; details: human, plasma, po
Measured attribute: Cmax (ng/mL)

# Compound, Quantitative result
rows = [
    ("Cc1ccccc1-c1cc(N2CCN(C)CC2)ncc1N(C)C(=O)C(C)(C)c1cc(C(F)(F)F)cc(C(F)(F)F)c1 [netupitant]", 434),
    ("O=C1c2cccc3c2[C@H](CCC3)CN1[C@@H]1CN2CCC1CC2 [palonosetron]", 1.53),
]

###

assay: Octanol-water partition coefficient; assay type: physicochemical
Measured attribute: logP

# Compound, Measured attribute, Quantitative result
rows = [
    ("Cc1ccccc1-c1cc(N2CCN(C)CC2)ncc1N(C)C(=O)C(C)(C)c1cc(C(F)(F)F)cc(C(F)(F)F)c1 [netupitant]", "logP", 5.1),
]

###

assay: Study 4 pilot bioequivalence study, PK after single oral NEPA; assay type: in vivo; conditions: human, plasma
half-life for assorted compounds

# Compound, half-life, h
records = [
    ("O=C1c2cccc3c2[C@H](CCC3)CN1[C@@H]1CN2CCC1CC2 [palonosetron]", 42.1),
    ("Cc1ccccc1-c1cc(N2CCN(C)CC2)ncc1N(C)C(=O)C(C)(C)c1cc(C(F)(F)F)cc(C(F)(F)F)c1 [netupitant]", 89.2),
]

###

assay: Study 5 bioequivalence study, PK after single oral NEPA; format: in vivo, human; conditions: human, plasma, po
The following compounds are shown together with reported half-life values.

# Input smiles, half-life
measured = [
    ("Cc1ccccc1-c1cc(N2CCN(C)CC2)ncc1N(C)C(=O)C(C)(C)c1cc(C(F)(F)F)cc(C(F)(F)F)c1", "95.6 h"),
    ("O=C1c2cccc3c2[C@H](CCC3)CN1[C@@H]1CN2CCC1CC2", "44.2 h"),
]

###

assay: Study 5 bioequivalence study, PK after single oral NEPA; type: in vivo, human; conditions: human, plasma, po

# Molecule, AUC(0-inf) [ng·h/mL]
data = [
    ("O=C1c2cccc3c2[C@H](CCC3)CN1[C@@H]1CN2CCC1CC2 [palonosetron]", 56.7),
]

###

assay: Study 10 comparative bioavailability study; type: in vivo, human; conditions: human, plasma, oral

# Input smiles, Vd/F
data = [
    ("Cc1ccccc1-c1cc(N2CCN(C)CC2)ncc1N(C)C(=O)C(C)(C)c1cc(C(F)(F)F)cc(C(F)(F)F)c1", "3160 L"),
]

###

experiment: clinical; details: human, in vivo

# Molecule, CL renal
records = [
    ("O=C1c2cccc3c2[C@H](CCC3)CN1[C@@H]1CN2CCC1CC2 [palonosetron]", "89.8 mL/min"),
]

###

assay: Binding to plasma proteins; type: in vitro ADME; conditions: human, plasma

# Input smiles, Result modifier, fraction unbound
records = [
    ("Cc1ccccc1-c1cc(N2CCN(C)CC2)ncc1N(C)C(=O)C(C)(C)c1cc(C(F)(F)F)cc(C(F)(F)F)c1", "<", 0.01),
    ("O=C1c2cccc3c2[C@H](CCC3)CN1[C@@H]1CN2CCC1CC2", "=", 0.38),
]

###

assay: Study 4 pilot bioequivalence study, PK after single oral NEPA; type: in vivo; details: human, plasma

# Input smiles, Vd/F / L
records = [
    ("O=C1c2cccc3c2[C@H](CCC3)CN1[C@@H]1CN2CCC1CC2", 658),
    ("Cc1ccccc1-c1cc(N2CCN(C)CC2)ncc1N(C)C(=O)C(C)(C)c1cc(C(F)(F)F)cc(C(F)(F)F)c1", 2780),
]

###

experiment: Study 10 comparative bioavailability study; format: in vivo, human; settings: human, plasma, oral

# Input smiles, Cmax [ng/mL]
rows = [
    ("Cc1ccccc1-c1cc(N2CCN(C)CC2)ncc1N(C)C(=O)C(C)(C)c1cc(C(F)(F)F)cc(C(F)(F)F)c1", 374),
]

###

test: Oral NEPA PK in cancer patients, summary across studies; format: in vivo; settings: human, plasma
# Lookup of reported Tmax keyed by entry
Measured attribute: Tmax

# Molecule, Result
data = [
    ("O=C1c2cccc3c2[C@H](CCC3)CN1[C@@H]1CN2CCC1CC2 [palonosetron]", "3.01 to 5.33 h"),
    ("Cc1ccccc1-c1cc(N2CCN(C)CC2)ncc1N(C)C(=O)C(C)(C)c1cc(C(F)(F)F)cc(C(F)(F)F)c1 [netupitant]", "4.02 to 4.56 h"),
]

###

test: clinical; details: human, in vivo, po
Measured attribute: AUC(0-inf)

# Input smiles, Result
data = [
    ("O=C1c2cccc3c2[C@H](CCC3)CN1[C@@H]1CN2CCC1CC2", "33.2 to 56.7 ng·h/mL"),
]

###

The following molecules are listed with their measured Tmax values.
experiment: clinical; conditions: human, in vivo, po
Measured attribute: Tmax

# Molecule, Measured attribute, Result
data = [
    ("O=C1c2cccc3c2[C@H](CCC3)CN1[C@@H]1CN2CCC1CC2 [palonosetron]", "Tmax", "3.76 to 4.96 h"),
    ("Cc1ccccc1-c1cc(N2CCN(C)CC2)ncc1N(C)C(=O)C(C)(C)c1cc(C(F)(F)F)cc(C(F)(F)F)c1 [netupitant]", "Tmax", "4.36 to 5.66 h"),
]

###

test: clinical; conditions: human, in vivo, po
Measured attribute: Vd/F

# Input smiles, Measured attribute, Result
data = [
    ("Cc1ccccc1-c1cc(N2CCN(C)CC2)ncc1N(C)C(=O)C(C)(C)c1cc(C(F)(F)F)cc(C(F)(F)F)c1", "Vd/F", "1980 to 3310 L"),
    ("O=C1c2cccc3c2[C@H](CCC3)CN1[C@@H]1CN2CCC1CC2", "Vd/F", "575 to 962 L"),
]

###

assay: Study 4 pilot bioequivalence study, PK after single oral NEPA; format: in vivo; conditions: human, plasma

# Input smiles, Tmax, h
measured = [
    ("O=C1c2cccc3c2[C@H](CCC3)CN1[C@@H]1CN2CCC1CC2", 4.19),
    ("Cc1ccccc1-c1cc(N2CCN(C)CC2)ncc1N(C)C(=O)C(C)(C)c1cc(C(F)(F)F)cc(C(F)(F)F)c1", 5.38),
]

###

test: Oral NEPA PK in cancer patients, summary across studies; format: in vivo; details: human, plasma
Listed next: entries and their corresponding Cmax.
Measured attribute: Cmax

# Input smiles, Result
records = [
    ("Cc1ccccc1-c1cc(N2CCN(C)CC2)ncc1N(C)C(=O)C(C)(C)c1cc(C(F)(F)F)cc(C(F)(F)F)c1", "477 to 567 ng/mL"),
    ("O=C1c2cccc3c2[C@H](CCC3)CN1[C@@H]1CN2CCC1CC2", "0.85 to 1.38 ng/mL"),
]

###

compounds and their reported Tmax
experiment: Study 5 bioequivalence study, PK after single oral NEPA; assay type: in vivo, human; settings: human, plasma, po
Measured attribute: Tmax

# Compound, Result
measured = [
    ("Cc1ccccc1-c1cc(N2CCN(C)CC2)ncc1N(C)C(=O)C(C)(C)c1cc(C(F)(F)F)cc(C(F)(F)F)c1 [netupitant]", "5.07 h"),
    ("O=C1c2cccc3c2[C@H](CCC3)CN1[C@@H]1CN2CCC1CC2 [palonosetron]", "4.68 h"),
]

###

// values below are reported Vd/F
test: Study 5 bioequivalence study, PK after single oral NEPA; assay type: in vivo, human; conditions: human, plasma, po

# Compound, Readout unit, Vd/F
rows = [
    ("O=C1c2cccc3c2[C@H](CCC3)CN1[C@@H]1CN2CCC1CC2 [palonosetron]", "L", 586),
    ("Cc1ccccc1-c1cc(N2CCN(C)CC2)ncc1N(C)C(=O)C(C)(C)c1cc(C(F)(F)F)cc(C(F)(F)F)c1 [netupitant]", "L", 3310),
]

###

assay: Oral NEPA PK in cancer patients, summary across studies; format: in vivo; conditions: human, plasma

# Input smiles, AUC(0-inf)
measured = [
    ("O=C1c2cccc3c2[C@H](CCC3)CN1[C@@H]1CN2CCC1CC2", "48.1 to 85.6 ng·h/mL"),
]

Origin of measurements: paper PMC6587462
